- target.of.assay: PKCΙ phosphorylation of moesin (Homo sapiens, UniProt P26038)
- Sequence (P26038 whole entry): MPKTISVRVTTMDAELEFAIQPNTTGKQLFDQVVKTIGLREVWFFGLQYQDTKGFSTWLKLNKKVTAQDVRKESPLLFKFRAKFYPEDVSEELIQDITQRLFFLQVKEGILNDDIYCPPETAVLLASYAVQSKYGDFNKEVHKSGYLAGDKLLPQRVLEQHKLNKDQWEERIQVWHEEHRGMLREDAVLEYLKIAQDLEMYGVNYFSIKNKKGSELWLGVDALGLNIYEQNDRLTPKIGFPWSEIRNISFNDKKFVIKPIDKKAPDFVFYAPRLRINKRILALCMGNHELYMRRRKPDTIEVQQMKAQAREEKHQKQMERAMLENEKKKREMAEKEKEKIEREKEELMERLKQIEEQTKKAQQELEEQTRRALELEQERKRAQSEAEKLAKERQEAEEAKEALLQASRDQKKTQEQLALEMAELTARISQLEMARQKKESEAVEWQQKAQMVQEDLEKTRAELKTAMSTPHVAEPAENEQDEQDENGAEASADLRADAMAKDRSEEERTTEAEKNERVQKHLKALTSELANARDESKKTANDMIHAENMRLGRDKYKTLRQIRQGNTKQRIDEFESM
assay.readout: pIC50
Give only the number. pIC50 is defined as minus log10 of concentration in molar units.

Problem: API: value(readout= pIC50, system= PKCΙ phosphorylation of moesin (Homo sapiens, UniProt P26038), query= OC(c1cc(C23CC4CC(CC(C4)C2)C3)nc2c(Cl)cc(Cl)cc12)C1CCCCN1 (stereo not shown) [NSC305787] )
Result: 5.03

====

- target.of.assay: actin
- procedure.summary: SPR binding to actin
- condition.details: read-out: KD for binding to actin; negative control; data not shown
assay.readout: pKd
Give only the number. pKd is defined as minus log10 of concentration in molar units.

Problem: Suppose we examine the compound OC(c1cc(C23CC4CC(CC(C4)C2)C3)nc2c(Cl)cc(Cl)cc12)C1CCCCN1 (stereo not shown) [NSC305787] ; what pKd value has been reported?
Result: 4.04

====

- target.of.assay: PKCΙ phosphorylation of radixin (Homo sapiens, UniProt P35241)
- Sequence (P35241 whole entry): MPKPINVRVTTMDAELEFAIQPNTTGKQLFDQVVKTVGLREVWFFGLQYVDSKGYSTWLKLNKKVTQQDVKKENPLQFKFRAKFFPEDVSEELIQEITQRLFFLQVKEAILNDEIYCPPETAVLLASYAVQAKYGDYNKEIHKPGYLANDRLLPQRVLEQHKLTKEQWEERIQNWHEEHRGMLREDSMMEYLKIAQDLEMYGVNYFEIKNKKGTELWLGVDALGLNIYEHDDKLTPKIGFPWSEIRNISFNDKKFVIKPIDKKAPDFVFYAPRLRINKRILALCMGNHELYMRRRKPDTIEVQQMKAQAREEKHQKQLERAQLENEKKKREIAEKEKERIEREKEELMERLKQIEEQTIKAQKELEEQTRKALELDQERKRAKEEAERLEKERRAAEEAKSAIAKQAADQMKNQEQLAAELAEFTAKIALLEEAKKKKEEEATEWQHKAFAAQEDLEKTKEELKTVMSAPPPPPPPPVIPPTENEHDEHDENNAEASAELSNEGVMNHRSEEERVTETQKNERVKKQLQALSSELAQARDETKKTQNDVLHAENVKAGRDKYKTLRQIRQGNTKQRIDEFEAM
assay.readout: pIC50
Give only the number. pIC50 is defined as minus log10 of concentration in molar units.

Problem: Suppose we examine the compound OC(c1cc(C23CC4CC(CC(C4)C2)C3)nc2c(Cl)cc(Cl)cc12)C1CCCCN1 (stereo not shown) [NSC305787] ; what pIC50 value has been reported?
Result: 4.26

====

- target.of.assay: PKCΙ (Homo sapiens)
- Sequence (P41743 whole entry): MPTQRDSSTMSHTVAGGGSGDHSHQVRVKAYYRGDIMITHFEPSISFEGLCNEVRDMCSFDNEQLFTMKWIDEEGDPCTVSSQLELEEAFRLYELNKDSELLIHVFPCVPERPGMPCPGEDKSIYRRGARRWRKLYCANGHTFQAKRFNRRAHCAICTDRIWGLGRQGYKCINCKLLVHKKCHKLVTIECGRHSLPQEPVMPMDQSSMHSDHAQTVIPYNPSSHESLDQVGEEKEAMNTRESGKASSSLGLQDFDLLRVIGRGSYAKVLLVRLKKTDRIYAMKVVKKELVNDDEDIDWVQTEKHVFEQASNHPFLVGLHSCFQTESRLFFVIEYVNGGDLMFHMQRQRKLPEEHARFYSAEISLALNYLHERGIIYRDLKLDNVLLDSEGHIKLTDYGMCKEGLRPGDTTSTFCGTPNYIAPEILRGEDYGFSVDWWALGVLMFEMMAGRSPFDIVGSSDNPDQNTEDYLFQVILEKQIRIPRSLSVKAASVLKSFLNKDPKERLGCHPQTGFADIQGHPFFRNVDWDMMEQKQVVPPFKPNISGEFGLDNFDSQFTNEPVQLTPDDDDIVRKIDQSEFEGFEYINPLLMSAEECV
- procedure.summary: Biacore direct interaction with PKCΙ
- condition.details: read-out: KD for binding to PKCΙ, data not shown
assay.readout: Kd (µM)
State the answer as a number, implicitly in µM.

Problem: Suppose we examine the molecule OC(c1cc(C23CC4CC(CC(C4)C2)C3)nc2c(Cl)cc(Cl)cc12)C1CCCCN1 (stereo not shown) [NSC305787] ; what Kd value has been reported?
Result: 172
